# MEASUREMENT_TARGET: Voltage-gated inwardly rectifying potassium channel KCNH2 (Homo sapiens) (UniProt Q12809)
# Sequence (Q12809 whole entry, looked up): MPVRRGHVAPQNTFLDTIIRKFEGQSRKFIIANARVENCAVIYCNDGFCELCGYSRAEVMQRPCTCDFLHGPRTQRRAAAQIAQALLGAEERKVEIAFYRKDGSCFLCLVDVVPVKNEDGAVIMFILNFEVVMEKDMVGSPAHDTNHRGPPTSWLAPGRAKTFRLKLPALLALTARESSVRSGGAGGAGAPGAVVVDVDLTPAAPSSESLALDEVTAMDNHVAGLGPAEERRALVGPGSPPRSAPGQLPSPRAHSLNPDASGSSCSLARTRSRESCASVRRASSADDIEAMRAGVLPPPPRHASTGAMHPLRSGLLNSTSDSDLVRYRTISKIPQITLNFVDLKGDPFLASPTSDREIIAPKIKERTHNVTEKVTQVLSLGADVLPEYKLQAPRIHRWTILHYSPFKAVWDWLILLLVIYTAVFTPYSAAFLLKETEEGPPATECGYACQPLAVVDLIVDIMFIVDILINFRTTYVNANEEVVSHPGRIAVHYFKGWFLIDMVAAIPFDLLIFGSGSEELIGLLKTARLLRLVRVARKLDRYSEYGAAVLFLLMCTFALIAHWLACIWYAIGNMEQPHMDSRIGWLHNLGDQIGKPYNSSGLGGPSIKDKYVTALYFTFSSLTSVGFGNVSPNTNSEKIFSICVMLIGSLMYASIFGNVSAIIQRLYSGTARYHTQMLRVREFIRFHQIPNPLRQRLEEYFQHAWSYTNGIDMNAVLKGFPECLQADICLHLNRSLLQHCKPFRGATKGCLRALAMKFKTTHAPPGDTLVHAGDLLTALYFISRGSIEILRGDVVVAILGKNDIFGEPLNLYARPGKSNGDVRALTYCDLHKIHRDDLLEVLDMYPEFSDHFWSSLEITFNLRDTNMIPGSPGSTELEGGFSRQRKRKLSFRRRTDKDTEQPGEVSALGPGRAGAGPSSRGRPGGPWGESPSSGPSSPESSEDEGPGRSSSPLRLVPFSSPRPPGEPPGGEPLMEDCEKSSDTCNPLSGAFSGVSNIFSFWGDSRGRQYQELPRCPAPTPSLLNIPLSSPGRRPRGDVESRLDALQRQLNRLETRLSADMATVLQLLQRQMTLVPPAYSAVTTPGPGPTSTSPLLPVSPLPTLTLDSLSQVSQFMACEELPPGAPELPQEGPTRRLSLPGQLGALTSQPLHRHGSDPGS
# TEST: Human Ether-a-go-go-Related Gene (hERG) channel small molecule antagonists: fluorescence cell-based qHTS assay (AID 1671200); also: nearly all actives have a fitted effect of over 50% in size
# CONDITION_PARAMETERS: hERG-U2OS cells, FluxOR thallium flux fluorescence; series mostly up to 76.8 µM
Records with an inconclusive call do not appear. Calls of active or inactive are those of the source. Calls follow the shape of the dose curve; as a rule, active = well fitted inhibition curve with a large enough effect in the repeat runs; inconclusive = weak or mixed curves; inactive = flat fitted curve, though single readings scatter.
Outcomes: True for active, False for inactive

[
  {
    "COMPOUND": "CCCCOC(=O)C(C)CC (stereo unspecified)",
    "MEASUREMENT_TARGET": "Voltage-gated inwardly rectifying potassium channel KCNH2 (Homo sapiens) (UniProt Q12809)",
    "ASSIGNED_CATEGORY": "False"
  },
  {
    "COMPOUND": "O=C(O)c1cccc(Cl)n1",
    "MEASUREMENT_TARGET": "Voltage-gated inwardly rectifying potassium channel KCNH2 (Homo sapiens) (UniProt Q12809)",
    "ASSIGNED_CATEGORY": "False"
  },
  {
    "COMPOUND": "CC(NCCC(c1ccccc1)c1ccccc1)c1ccccc1 (stereo unspecified)",
    "MEASUREMENT_TARGET": "Voltage-gated inwardly rectifying potassium channel KCNH2 (Homo sapiens) (UniProt Q12809)",
    "ASSIGNED_CATEGORY": "True"
  },
  {
    "COMPOUND": "CCC1(c2cnc[nH]2)Cc2ccccc2C1",
    "MEASUREMENT_TARGET": "Voltage-gated inwardly rectifying potassium channel KCNH2 (Homo sapiens) (UniProt Q12809)",
    "ASSIGNED_CATEGORY": "False"
  },
  {
    "COMPOUND": "CCOC(=O)CC(C)O (stereo unspecified)",
    "MEASUREMENT_TARGET": "Voltage-gated inwardly rectifying potassium channel KCNH2 (Homo sapiens) (UniProt Q12809)",
    "ASSIGNED_CATEGORY": "False"
  },
  {
    "COMPOUND": "CC(C)=C1CC[C@@H](C)CC1=O",
    "MEASUREMENT_TARGET": "Voltage-gated inwardly rectifying potassium channel KCNH2 (Homo sapiens) (UniProt Q12809)",
    "ASSIGNED_CATEGORY": "False"
  },
  {
    "COMPOUND": "Nc1ncnc2c1ncn2[C@@H]1O[C@H](COP(=O)(O)O)[C@@H](O)[C@H]1O",
    "MEASUREMENT_TARGET": "Voltage-gated inwardly rectifying potassium channel KCNH2 (Homo sapiens) (UniProt Q12809)",
    "ASSIGNED_CATEGORY": "False"
  },
  {
    "COMPOUND": "CC(C)(c1cc(Br)c(O)c(Br)c1)c1cc(Br)c(O)c(Br)c1",
    "MEASUREMENT_TARGET": "Voltage-gated inwardly rectifying potassium channel KCNH2 (Homo sapiens) (UniProt Q12809)",
    "ASSIGNED_CATEGORY": "False"
  },
  {
    "COMPOUND": "c1ccc2c(c1)CCC2",
    "MEASUREMENT_TARGET": "Voltage-gated inwardly rectifying potassium channel KCNH2 (Homo sapiens) (UniProt Q12809)",
    "ASSIGNED_CATEGORY": "False"
  },
  {
    "COMPOUND": "O=c1cccc[nH]1",
    "MEASUREMENT_TARGET": "Voltage-gated inwardly rectifying potassium channel KCNH2 (Homo sapiens) (UniProt Q12809)",
    "ASSIGNED_CATEGORY": "False"
  },
  {
    "COMPOUND": "O=C1C=CC(=O)N1c1ccccc1",
    "MEASUREMENT_TARGET": "Voltage-gated inwardly rectifying potassium channel KCNH2 (Homo sapiens) (UniProt Q12809)",
    "ASSIGNED_CATEGORY": "True"
  },
  {
    "COMPOUND": "C/C=C/c1ccc(OC)c(OC)c1",
    "MEASUREMENT_TARGET": "Voltage-gated inwardly rectifying potassium channel KCNH2 (Homo sapiens) (UniProt Q12809)",
    "ASSIGNED_CATEGORY": "False"
  },
  {
    "COMPOUND": "CCCCN(CCCC)CCC(O)c1cc2c(Cl)cc(Cl)cc2c2cc(C(F)(F)F)ccc12 (stereo unspecified)",
    "MEASUREMENT_TARGET": "Voltage-gated inwardly rectifying potassium channel KCNH2 (Homo sapiens) (UniProt Q12809)",
    "ASSIGNED_CATEGORY": "True"
  },
  {
    "COMPOUND": "CC(=O)C=O",
    "MEASUREMENT_TARGET": "Voltage-gated inwardly rectifying potassium channel KCNH2 (Homo sapiens) (UniProt Q12809)",
    "ASSIGNED_CATEGORY": "False"
  },
  {
    "COMPOUND": "CCC(C)(C)c1cc(O)c(C(C)(C)CC)cc1O",
    "MEASUREMENT_TARGET": "Voltage-gated inwardly rectifying potassium channel KCNH2 (Homo sapiens) (UniProt Q12809)",
    "ASSIGNED_CATEGORY": "False"
  },
  {
    "COMPOUND": "Oc1c(Br)cc(Br)c2cccnc12",
    "MEASUREMENT_TARGET": "Voltage-gated inwardly rectifying potassium channel KCNH2 (Homo sapiens) (UniProt Q12809)",
    "ASSIGNED_CATEGORY": "False"
  }
]

---

# TEST: qHTS assay to identify small molecule antagonists of the estrogen receptor alpha (ER-alpha) signaling pathway - cell viability counter screen (AID 743074);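 also: HEK293 cells carrying ER-alpha-UAS-bla reporter stimulated with 17beta-estradiol; nearly all actives have a fitted effect of over 45% in size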
# CONDITION_PARAMETERS: ERalpha-bla HEK293 viability, CellTiter-Glo luminescence, 18 h; series mostly up to 69.4 µM
Results filed as inconclusive are left out. Activity calls are given as the source filed them. Calls come from the whole dose curve.
Outcomes: true for active, false for inactive

[
  {
    "COMPOUND": "Cc1cccc(C)c1NC(=O)CN1CCN(CCCC(c2ccc(F)cc2)c2ccc(F)cc2)CC1",
    "ASSIGNED_CATEGORY": "false"
  },
  {
    "COMPOUND": "CCCCCCCCCCOCC(O)CN (configuration not stated)",
    "ASSIGNED_CATEGORY": "false"
  },
  {
    "COMPOUND": "O=C1OC(OC(=O)c2cccnc2Nc2cccc(C(F)(F)F)c2)c2ccccc21 (configuration not stated)",
    "ASSIGNED_CATEGORY": "false"
  },
  {
    "COMPOUND": "ClC/C=C\\CCl",
    "ASSIGNED_CATEGORY": "false"
  },
  {
    "COMPOUND": "CCCCCCC(C)OC(=O)COc1nc(F)c(Cl)c(N)c1Cl (configuration not stated)",
    "ASSIGNED_CATEGORY": "false"
  },
  {
    "COMPOUND": "CC(CN(C)C)CN1c2ccccc2CCc2ccccc21 (configuration not stated)",
    "ASSIGNED_CATEGORY": "false"
  },
  {
    "COMPOUND": "CCCCN(CCCC)CCC(O)c1cc2c(Cl)cc(Cl)cc2c2cc(C(F)(F)F)ccc12 (configuration not stated)",
    "ASSIGNED_CATEGORY": "false"
  },
  {
    "COMPOUND": "CCN1CCN(c2cc(-c3ccc(F)cc3)c3c(n2)CCCCCC3)CC1",
    "ASSIGNED_CATEGORY": "false"
  },
  {
    "COMPOUND": "COc1cccc(CCc2ccccc2OCC(CN(C)C)OC(=O)CCC(=O)O)c1 (configuration not stated)",
    "ASSIGNED_CATEGORY": "false"
  },
  {
    "COMPOUND": "CC(=O)Nc1ccc(O)cc1",
    "ASSIGNED_CATEGORY": "false"
  },
  {
    "COMPOUND": "CCNc1nc(NC(C)CC)nc(OC)n1 (configuration not stated)",
    "ASSIGNED_CATEGORY": "false"
  },
  {
    "COMPOUND": "C=C(C)C(=O)OCCC[Si](Cl)(Cl)Cl",
    "ASSIGNED_CATEGORY": "false"
  },
  {
    "COMPOUND": "COCC(=O)O[C@]1(CCN(C)CCCc2nc3ccccc3[nH]2)CCc2cc(F)ccc2[C@@H]1C(C)C",
    "ASSIGNED_CATEGORY": "true"
  },
  {
    "COMPOUND": "O=C1c2c(O)ccc(O)c2C(=O)c2c(NCCNCCO)ccc(NCCNCCO)c21",
    "ASSIGNED_CATEGORY": "false"
  },
  {
    "COMPOUND": "O=S(=O)(O)CCCN1CCOCC1",
    "ASSIGNED_CATEGORY": "false"
  },
  {
    "COMPOUND": "CCOC(=O)N1CCC(=C2c3ccc(Cl)cc3CCc3cccnc32)CC1",
    "ASSIGNED_CATEGORY": "false"
  },
  {
    "COMPOUND": "CCCCCCCC/C=C/CCCOC(C)=O",
    "ASSIGNED_CATEGORY": "false"
  }
]
